test system: NCI/ADR-RES ovarian; experiment: NCI tumour cell line growth inhibition, 48 h
observed_property: GI50

INSERT INTO measurements (compound, observed_property, reported_value) VALUES
  ('Cc1ccc2sc3c(NCCCN)nc4ccccc4c3c(=O)c2c1', 'GI50', '1.8 µM'),
  ('COc1cccc(N2CC(O)=C(c3nc4ccccc4s3)C2=N)c1', 'GI50', '0.286 µM'),
  ('CCCCCCCCN(CCCCCCCC)CC(O)c1cc(-c2ccccc2)nc2ccc(OC)cc12 (stereo not given)', 'GI50', '16.3 µM'),
  ('O=C(Nc1nc2c(C(F)(F)F)cccc2s1)c1cc(Cl)ccc1O', 'GI50', '0.311 µM'),
  ('CCC(=O)NC1=C(Cl)C(=O)C(NC(=O)CC)=C(Cl)C1=O', 'GI50', '24 µM');

* * *

system: OVCAR-5 ovarian; experiment: NCI tumour cell line growth inhibition, 48 h
Readings of TGI for the listed molecules
observed_property: TGI (µM)

INSERT INTO measurements (molecule, observed_property, result_modifier, reported_value) VALUES
  ('O=C(CCCCCNC(=O)c1ccc(Cl)cc1)NO', 'TGI', '=', 8.43),
  ('COC(=O)[C@]1(C)CCC[C@@]2(C)C3=C(CC[C@H]12)C[C@@H](CC(OC(C)=O)OC(C)=O)[C@@H](C)C3', 'TGI', '=', 18.4),
  ('O=C(Nc1ccc(Br)c2ccccc12)c1ccc2ccccc2c1O', 'TGI', '=', 12.7),
  ('OC(c1cc(C(F)(F)F)nc2c(Cl)cc(Cl)cc12)C1CCCCN1 (stereo not given)', 'TGI', '>', 50.4),
  ('CC1(C)CCCCCC(O)C(O)CCC(C)(C)C1=O (stereo not given)', 'TGI', '>', 100),
  ('O=C(CC12C3C4C1C1C2C3C41CC(=O)NO)NO (stereo not given)', 'TGI', '>', 100),
  ('O=C(Nc1ccc(Cl)c(Cl)c1)c1ccc(NC2=C(Cl)C(=O)N(Cc3ccccc3)C2=O)cc1', 'TGI', '=', 8.91),
  ('COc1ccc(C2N(c3ccc(C)c(N=C=O)c3)C(=O)N3C(c4ccc(OC)cc4)N(c4ccc(C)c(N=C=O)c4)C(=O)N23)cc1 (stereo not given)', 'TGI', '>', 100),
  ('Oc1c(C(c2ccc(F)cc2)N2CCCCC2)ccc2cncnc12 (stereo not given)', 'TGI', '>', 100),
  ('COC(=O)C1=C(C)NC(=S)NC1c1ccc(N(CCCl)CCCl)cc1Cl (stereo not given)', 'TGI', '>', 100);

* * *

test system: UACC-257 melanoma; experiment: NCI tumour cell line growth inhibition, 48 h
observed_property: TGI (µM)

INSERT INTO assay_data (compound, unit_abbreviation, result_modifier, reported_value) VALUES
  ('COc1ccc2c3ccnc(C(F)(F)F)c3n(CCCCN)c2c1', 'µM', '=', 8.41),
  ('Cc1ccc2sc3c(NCCCN)nc4ccccc4c3c(=O)c2c1', 'µM', '=', 4.21),
  ('O=C1Sc2ccccc2C(=O)N2CCSC12 (centres undefined)', 'µM', '>', 100),
  ('Cn1nc(C(F)(F)F)cc1-c1cc(Cl)c(OCc2ccc(Cl)cc2)c(-c2ccc(Cl)c(C(F)(F)F)c2)c1O', 'µM', '=', 3.14);
